Reported pIC50 values follow for various compounds
- STUDY TARGET: GSK3b (GST-full length GSK3b) (Homo sapiens (Human))
- Sequence (P49841 whole entry): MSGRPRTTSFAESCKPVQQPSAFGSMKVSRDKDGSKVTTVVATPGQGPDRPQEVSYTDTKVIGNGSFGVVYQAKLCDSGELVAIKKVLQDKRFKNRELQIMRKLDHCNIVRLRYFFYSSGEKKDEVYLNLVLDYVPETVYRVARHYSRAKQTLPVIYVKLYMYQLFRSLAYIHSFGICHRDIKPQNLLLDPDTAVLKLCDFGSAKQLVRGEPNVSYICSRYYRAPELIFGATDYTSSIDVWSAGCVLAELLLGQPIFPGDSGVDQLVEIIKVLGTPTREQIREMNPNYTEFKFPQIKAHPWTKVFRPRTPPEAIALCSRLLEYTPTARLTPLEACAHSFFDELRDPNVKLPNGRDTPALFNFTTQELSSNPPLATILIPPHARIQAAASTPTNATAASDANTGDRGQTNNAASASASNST
- ASSAY DETAILS: GSK3b TR-FRET kinase assay
- Format: biochemical
- EXPERIMENTAL CONDITIONS: 1 nM GSK3b, 2 μM ATP, 30 minute preincubation, Table 16; read-out: GSK3-B TR-FRET BIOCHEMICAL (TR-FRET); IC50
pIC50: −log10 of the molar value.

>>> df
                                   compound                              study_target  assay_result
0  CCC1(c2cccc(N(C)C(=O)Cc3ccccc3)c2)C2=C(CC(C)(C)CC2=O)Nc2n[nH]cc21 (stereo not drawn)  GSK3b (GST-full length GSK3b) (Homo sapiens (Human))        ≥ 7.00
1  CC[C@]1(c2cccc(C(C)C)c2)C2=C(CC(C)(C)NC2=O)Nc2n[nH]c(C(F)(F)F)c21  GSK3b (GST-full length GSK3b) (Homo sapiens (Human))  6.00 to 7.00
2  CCC1(c2cccc(N(C)c3cccnn3)c2)C2=C(CC(C)(C)CC2=O)Nc2n[nH]cc21 (stereo not drawn) [Compound 911976]  GSK3b (GST-full length GSK3b) (Homo sapiens (Human))        < 5.30
3  CC[C@@]1(c2cccc(-c3ccncc3F)c2)C2=C(CC(C)(C)NC2=O)Nc2n[nH]c(Cl)c21  GSK3b (GST-full length GSK3b) (Homo sapiens (Human))        ≥ 7.00
4  CC[C@]1(c2cccc(N3CCC[C@H]3C)c2)C2=C(CC(C)(C)CC2=O)Nc2n[nH]cc21  GSK3b (GST-full length GSK3b) (Homo sapiens (Human))        < 5.30
5  CCC1(c2cccc(-c3ccnnc3)c2)C2=C(CC(C)(C)CC2=O)Nc2n[nH]cc21 (stereo not drawn)  GSK3b (GST-full length GSK3b) (Homo sapiens (Human))        ≥ 7.00
6  CCC1(c2cc(-c3ccncc3)ccc2C)C2=C(CC(C)(C)CC2=O)Nc2n[nH]cc21 (stereo not drawn)  GSK3b (GST-full length GSK3b) (Homo sapiens (Human))  6.00 to 7.00
7  CCC1(c2cccc(-c3ccnc4c3CCCC4)c2)C2=C(CC(C)(C)C2=O)Nc2n[nH]cc21 (stereo not drawn)  GSK3b (GST-full length GSK3b) (Homo sapiens (Human))  6.00 to 7.00

# pIC50 of CCC1(c2cccc(C(F)(F)F)c2)C2=C(CC(C)(C)C2=O)Nc2n[nH]cc21 (stereo not drawn) = < 5.30

# pIC50 of `CC1(C)CC(=O)C2=C(C1)Nc1n[nH]cc1C21CN(CCc2ccccc2)C1` = < 5.30

# pIC50 of `COCCN1CC2(C1)C1=C(CC(C)(C)CC1=O)Nc1n[nH]cc12` = < 5.30

# pIC50 of CCC1(c2cccc(C(F)(F)F)c2)C2=C(Nc3n[nH]cc31)c1ccccc1C2=O (stereo not drawn) = ≥ 7.00

# pIC50 of `CC[C@]1(c2cccc(-c3cnn(CCOC)c3)c2)C2=C(CC(C)(C)CC2=O)Nc2n[nH]c(C)c21` = < 5.30

# pIC50 of O=C1CC2(CCOC2)CC2=C1C1(CCOCC1)c1c[nH]nc1N2 (stereo not drawn) = 6.00 to 7.00

# pIC50 of CCC1(c2cccc(N3CC(C)C(C)C3)c2)C2=C(CC(C)(C)CC2=O)Nc2n[nH]cc21 (stereo not drawn) [Compound 918327] = < 5.30
